biological target: PDEV (Oryctolagus cuniculus, UniProt G1SX67); assay: Cyclic nucleotide phosphodiesterase (PDE) assay, inhibition of PDEV isolated from rabbit tissue; type: biochemical; conditions: 10 μM test compound; rabbit PDEV
Mark not satisfied for % Inh @ 10 μM (rabbit) values under 30%, and satisfied for everything at or above.

# compound, assigned_category
rows = [
    ("Nc1cccc(-c2ccc(C(=O)N3CCc4c([nH]c5ccccc45)C3c3ccc4c(c3)OCO4)o2)c1 (stereo not shown)", "satisfied"),
    ("O=C(c1cnn(-c2ccccc2)c1C(F)(F)F)N1CCc2c([nH]c3ccccc23)C1c1ccc2c(c1)OCO2 (stereo not shown)", "satisfied"),
    ("O=C(c1ccc(-c2ccc(Cl)cc2)o1)N1CCc2c(sc3ccccc23)C1c1ccc2c(c1)OCO2 (stereo not shown)", "satisfied"),
    ("N#Cc1ccc(C2c3[nH]c4ccccc4c3CCN2C(=O)c2ccc(-c3cccc([N+](=O)[O-])c3)o2)cc1 (stereo not shown)", "not satisfied"),
    ("O=C(c1ccc(-c2cccc(C(F)(F)F)c2)o1)N1CCc2c(n(CCN3CCOCC3)c3ccccc23)C1c1ccc2c(c1)OCO2 (stereo not shown)", "satisfied"),
    ("O=C(c1ccc(-c2cccc([N+](=O)[O-])c2)o1)N1CCc2c(n(C(=O)c3ccc(-c4cccc([N+](=O)[O-])c4)o3)c3ccccc23)C1c1ccc2c(c1)OC(F)(F)O2 (stereo not shown)", "not satisfied"),
    ("Cc1onc(-c2ccccc2)c1C(=O)N1CCc2c([nH]c3ccccc23)C1c1ccc(Cl)c(C(F)(F)F)c1 (racemic)", "not satisfied"),
]

Just for reference, patent US6864253B2 is where these values come from.
